experimental-system: [3H]-serotonin reuptake (Rattus norvegicus)
Construct: the cerebral hemispheres were rapidly removed, and a P2-synaptosomal fraction was prepared; from tissue; host or cells: rat cerebral hemispheres, P2 synaptosomal fraction
Sequence (P31652 whole entry): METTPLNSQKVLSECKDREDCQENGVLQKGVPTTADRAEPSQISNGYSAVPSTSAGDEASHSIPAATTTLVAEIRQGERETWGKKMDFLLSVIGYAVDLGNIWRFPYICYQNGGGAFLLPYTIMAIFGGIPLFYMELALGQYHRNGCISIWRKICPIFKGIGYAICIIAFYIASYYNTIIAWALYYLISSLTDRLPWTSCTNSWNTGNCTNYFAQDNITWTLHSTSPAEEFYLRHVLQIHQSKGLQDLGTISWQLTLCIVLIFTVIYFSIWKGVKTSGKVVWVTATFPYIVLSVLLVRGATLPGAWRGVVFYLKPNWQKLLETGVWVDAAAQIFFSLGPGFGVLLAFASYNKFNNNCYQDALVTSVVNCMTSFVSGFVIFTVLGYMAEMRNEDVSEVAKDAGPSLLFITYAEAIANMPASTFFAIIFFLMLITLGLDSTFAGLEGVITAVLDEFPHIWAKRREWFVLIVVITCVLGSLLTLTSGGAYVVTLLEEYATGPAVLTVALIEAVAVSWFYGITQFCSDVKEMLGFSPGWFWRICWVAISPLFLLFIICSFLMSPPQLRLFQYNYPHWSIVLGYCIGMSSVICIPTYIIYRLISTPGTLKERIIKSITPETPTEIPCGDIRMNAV
protocol-text: In vitro functional inhibition of [3H]-serotonin reuptake, cerebral hemisphere synaptosomes
Assay type: biochemical
condition-set: read-out: Serotonine inhibition pIC50 (converted)
The compounds listed here are annotated with their IC50.
// note: answer is a bare numeric in µM

[[record]]
compound = "COc1ccc([C@@H](C[N+](C)(C)[O-])C2(O)CCCCC2)cc1 [(S)-venlafaxine-N-oxide, S-Venlafaxine N-oxide]"
val = 15.8


Given C[N+](C)([O-])C[C@H](c1ccc(O)cc1)C1(O)CCCCC1 [(S)—O-desmethyl-venlafaxine-N-oxide, O-desmethyl-S-venlafaxine N-oxide] , state its recorded IC50. 25.1

Using the record for C[N+](C)([O-])C[C@@H](c1ccc(O)cc1)C1(O)CCCCC1 [(R)—O-desmethyl-venlafaxine-N-oxide, O-Desmethyl-R-venlafaxine N-oxide] , report its IC50. 39.8

Entry COc1ccc([C@H](C[N+](C)(C)[O-])C2(O)CCCCC2)cc1 [(R)-venlafaxine-N-oxide, R-Venlafaxine N-oxide] : reported IC50 = ? 20

----------
protocol-text: Plasma and brain concentrations and plasma pharmacokinetics after i.v. or p.o. administration to mice (LC-MS/MS)
condition-set: male, NMRI, mouse, plasma, oral, 10 mg/kg
recorded-endpoint: bioavailability (%)
Field: numeric (%). Do not append units.

# lookup: bioavailability of COc1ccc(C(CN(C)C)C2(O)CCCCC2)cc1 (racemic) [Venlafaxine, reference compound] 48.7

----------
protocol-text: in vivo
condition-set: male, NMRI, mouse, in vivo, po, 10 mg/kg
recorded-endpoint: Kp
Respond using a number only.

Tell me the measured Kp of COc1ccc(C(CN(C)C)C2(O)CCCCC2)cc1 (racemic) [Venlafaxine, reference compound] , please. 3.4

----------
protocol-text: Plasma and brain concentrations and plasma pharmacokinetics after i.v. or p.o. administration to mice (LC-MS/MS)
condition-set: male, NMRI, mouse, plasma, po, 10 mg/kg
recorded-endpoint: Cmax (ng/mL)
// return numeric value only (unit: ng/mL, not printed)

Query (molecule): COc1ccc(C(CN(C)C)C2(O)CCCCC2)cc1 (racemic) [Venlafaxine, reference compound] ; field requested: Cmax 630

----------
protocol-text: Plasma and brain concentrations and plasma pharmacokinetics after i.v. or p.o. administration to mice (LC-MS/MS)
condition-set: male, NMRI, mouse, plasma, po, 10 mg/kg
recorded-endpoint: AUC (ng·h/mL)
Output spec: scalar in ng·h/mL, unitless text.

Bench note: what AUC did COc1ccc(C(CN(C)C)C2(O)CCCCC2)cc1 (racemic) [Venlafaxine, reference compound] show? 943

----------
protocol-text: Plasma and brain concentrations and plasma pharmacokinetics after i.v. or p.o. administration to mice (LC-MS/MS)
condition-set: male, NMRI, mouse, plasma, iv, 1 mg/kg
recorded-endpoint: Cmax (ng/mL)
Output spec: scalar in ng/mL, unitless text.

Find the recorded Cmax belonging to COc1ccc(C(CN(C)C)C2(O)CCCCC2)cc1 (racemic) [Venlafaxine, reference compound] and report it. 408

----------
protocol-text: Plasma and brain concentrations and plasma pharmacokinetics after i.v. or p.o. administration to mice (LC-MS/MS)
condition-set: male, NMRI, mouse, plasma, iv, 1 mg/kg
recorded-endpoint: Vd (L/kg)
The reply should be a number in L/kg, with the unit left off.

// Vd lookup, key: COc1ccc(C(CN(C)C)C2(O)CCCCC2)cc1 (racemic) [Venlafaxine, reference compound] 6.2
